Would you mind telling me the reported pKi of each entry?
STUDY TARGET: UniProt:Q99572
TEST DESCRIPTION: Radioligand binding, human P2X7-1321N1 cell membranes, tracer tritiated A-804598
CONDITION LABEL: human P2X7-1321N1 membranes; 1 hour at 4° C.; IC50 corrected for tracer concentration and affinity
The read-out pKi is expressed as -log10 of concentration in moles per litre.

Challenge: Item O=C(c1cccc(C(F)(F)F)c1Cl)N1CCc2c(nc(C(F)(F)F)nc2-c2ccn[nH]2)C1 has what recorded pKi?
Response given: 7.10

Challenge: Queued: CN(C)c1nc2c(c(-c3ccn[nH]3)n1)CCN(C(=O)c1cccc(C(F)(F)F)c1Cl)C2
Response given: 7.00

Challenge: Okay, and Cc1nc2c(c(-c3ccn[nH]3)n1)CCN(C(=O)c1cccc(Cl)c1Cl)C2 ?
Response given: 7.20

###

STUDY TARGET: P2X7 (Homo sapiens (Human), UniProt Q99572)
Sequence (Q99572 whole entry): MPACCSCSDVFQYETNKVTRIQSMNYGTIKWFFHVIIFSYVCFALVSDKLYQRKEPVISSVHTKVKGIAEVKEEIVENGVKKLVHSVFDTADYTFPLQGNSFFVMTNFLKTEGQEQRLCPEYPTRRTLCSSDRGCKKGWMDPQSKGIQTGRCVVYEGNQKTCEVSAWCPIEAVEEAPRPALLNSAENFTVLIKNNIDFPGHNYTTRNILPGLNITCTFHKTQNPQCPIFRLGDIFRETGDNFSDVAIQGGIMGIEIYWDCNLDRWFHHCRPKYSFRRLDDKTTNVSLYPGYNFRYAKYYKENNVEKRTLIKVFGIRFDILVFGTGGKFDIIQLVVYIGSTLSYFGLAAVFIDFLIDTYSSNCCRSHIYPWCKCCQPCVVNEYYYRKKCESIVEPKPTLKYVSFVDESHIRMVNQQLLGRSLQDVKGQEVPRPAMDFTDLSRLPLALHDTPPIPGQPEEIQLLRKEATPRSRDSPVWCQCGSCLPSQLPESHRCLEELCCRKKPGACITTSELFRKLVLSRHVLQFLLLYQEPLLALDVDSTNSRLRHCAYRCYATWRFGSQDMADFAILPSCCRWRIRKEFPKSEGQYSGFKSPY
TEST DESCRIPTION: P2X7 antagonism in human PBMCs (IL-1β release, ELISA)
Assay type: cell-based
CONDITION LABEL: test compound 10 μM, IL-1β release in human PBMCs, LPS 30 ng/ml + Bz-ATP 0.5 mM, read-out: PBMC 10 μM (% control)
Lab note: cut-off is 10%. Strictly less in remaining activity at 10 µM is fulfilled. Exactly 10% or more is not fulfilled.

Challenge: Answer whether the compound Cc1nc2c(c(-c3ccn(CCF)n3)n1)C[C@H](C)N(C(=O)c1cccc(C(F)(F)F)c1Cl)C2 (single isomer, unassigned) has remaining activity at 10 µM strictly less than 10%
Response given: not fulfilled

Challenge: For CC1c2ncnc(-c3ccn[nH]3)c2CCN1C(=O)c1ccc(F)c(Cl)c1Cl (stereo not drawn) then?
Response given: fulfilled

Challenge: Same lookup for CC1c2ncnc(-c3ccn[nH]3)c2CCN1C(=O)c1ccc(F)c(C(F)(F)F)c1Cl (stereo not drawn) , please.
Response given: fulfilled

Challenge: And then CN(C)c1nc2c(c(-c3ccccc3)n1)CCN(C(=O)c1cccc(C(F)(F)F)c1Cl)C2 , what is it?
Response given: not fulfilled

Challenge: Same lookup for Cc1nc2c(c(-c3ccccn3)n1)CCN(C(=O)c1cccc(C(F)(F)F)c1Cl)C2 , please.
Response given: not fulfilled

Challenge: Do the same for Cc1cccc(C(=O)N2CCc3c(ncnc3-c3cnn(C)c3)C2)c1Cl please
Response given: not fulfilled

Challenge: Now consider CC1c2ncnc(-c3ccn[nH]3)c2CCN1C(=O)c1ccc(Cl)c(F)c1Cl (stereo not drawn) and answer again.
Response given: fulfilled

Challenge: Then what about the compound Cc1nc2c(c(-c3ccn[nH]3)n1)CC(C)N(C(=O)c1ccc(F)c(C(F)(F)F)c1Cl)C2 (stereo not drawn) ?
Response given: fulfilled

Challenge: Another compound: Cc1nc2c(c(-c3ccn[nH]3)n1)CC(C)N(C(=O)c1ccccc1Cl)C2 (stereo not drawn)
Response given: fulfilled

Challenge: Further, for Cc1nc2c(c(-c3c(C)noc3C)n1)CCN(C(=O)c1cccc(C(F)(F)F)c1Cl)C2 ?
Response given: not fulfilled

Challenge: Here is the next compound: O=C(c1cccc(C(F)(F)F)c1F)N1CCc2c(ncnc2-c2ccn[nH]2)C1
Response given: fulfilled

Challenge: Similarly, Cn1ccc(-c2ncnc3c2CCN(C(=O)c2cccc(C(F)(F)F)c2Cl)C3)n1 ?
Response given: not fulfilled

Challenge: O=C(c1ccc(Cl)c(F)c1Cl)N1CCc2c(ncnc2-c2ccn[nH]2)C1 , same question.
Response given: fulfilled

Challenge: # iterate: Cc1nc2c(c(-c3ccn[nH]3)n1)CC(C)N(C(=O)c1ccc(F)c(Cl)c1Cl)C2 (stereo not drawn)
Response given: not fulfilled

Challenge: Note, next up: Cc1nc2c(c(-c3ccc[nH]3)n1)CCN(C(=O)c1cccc(C(F)(F)F)c1Cl)C2
Response given: fulfilled

Challenge: // same read-out, input: Cc1nc2c(c(-c3[nH]ncc3C(F)(F)F)n1)CCN(C(=O)c1cccc(Cl)c1Cl)C2
Response given: not fulfilled
